Answer each item with its documented EC50.
target: DENV-4 VLP (Dengue virus serotype 4, strain …, UniProt P09866 114-774)
assay explanation: Luminex, VLP-coupled beads
Response body: numeric value in µg/mL, unit text excluded.

Reported EC50 of DENV4-7F2 (antibody, V domains shown, also called Clone 7F2) VH: QSVEESGGRLVTPGTPLTLTCTVSGIDLSYYAMGWVRQAPGEGLECIGFIDTGDSAYYASWAKGRFTISKTSSTTVDLKITSPTPEDTATYFCGRSLSSYYDWDAFDPWGPGTLVTVSS VL: AYDMTQTPASVEVAVGGTVTINCQASQTIGNLLAWYQQKPGQRPKLLIYRASTLASGVPSRFKGSGSGTQFTLTISGVECADAATYYCQQGASANDIDNSFGGGTAVVVK : 0.0407

Reported EC50 of DENV4-7G4 (antibody, V domains shown, also called Clone 7G4) VH: QSVEESGGRLVTPGTPLTLTCTVSGFSLSSCAMTWVRQAPGKGLEWIGYIYVDSDTTYYASWAKGRFTISTTSTTVDLRITSPTTEDTATYFCARTTAYVGGGYGDDTFDPWGPGTLVTVSS VL: DVVMTQTPASVEAAVGGTVTINCQASQNINSYLSWYQQKPGQRPKLLIYRAFTLASGVSSRFKGSGSGTQFTLTISGVECADAATYYCQQGYSFSGVDNVFGGGTEVVVK : 0.0214

Reported EC50 of DENV4-10A11 (antibody, V domains shown, also called Clone 10A11; 10A1l) VH: QSVEESGGRLVTPGTPLTLTCTVSGINLSFYAMGWVRQAPGKGLECVGFIDTDNSAYYASWAKGRFTISKTSTTVDLKITSPTTEDTATYFCARSLSSFYDWDAFDPWGPGTLVTVSS VL: AYDMTQTPASVEVAVGGTVTIKCLASQSISNLLAWYQQKPGQRPKLLIYRASTLASGVPSRFKGSGSGTQFTLTISGVECADAATYYCQQGASNSDIDNAFGGGTEVVVK : 0.0236

Reported EC50 of DENV4-5B11 (antibody, V domains shown, also called Clone 5B11) VH: QSVEESGGRLVTPGTPLTLTCTVSGFSLSDSAMSWVRQAPGKGLEWIGYIYAGSGTTYYASWAKGRFTISKTSTTVDLKITSPTTEDTATYFCARATAYVGYGYGDDTFDPWGPGTLVTVSS VL: AYDMTQTPASVEVAVGGTVTIKCQASQSISSYLSWYQQKPGQRPKLLIYRASTLASGVSSRFKGSGSGTEFTLTISGVQCDDAATYYCQQGYSNSDVDNVFGGGTEVVVK : 0.0192
